Where do these numbers come from? They come from patent US20240124464A1.

- Assay System: NUAK1(h) enzyme (Homo sapiens, UniProt O60285)
- Sequence (O60285 1-661): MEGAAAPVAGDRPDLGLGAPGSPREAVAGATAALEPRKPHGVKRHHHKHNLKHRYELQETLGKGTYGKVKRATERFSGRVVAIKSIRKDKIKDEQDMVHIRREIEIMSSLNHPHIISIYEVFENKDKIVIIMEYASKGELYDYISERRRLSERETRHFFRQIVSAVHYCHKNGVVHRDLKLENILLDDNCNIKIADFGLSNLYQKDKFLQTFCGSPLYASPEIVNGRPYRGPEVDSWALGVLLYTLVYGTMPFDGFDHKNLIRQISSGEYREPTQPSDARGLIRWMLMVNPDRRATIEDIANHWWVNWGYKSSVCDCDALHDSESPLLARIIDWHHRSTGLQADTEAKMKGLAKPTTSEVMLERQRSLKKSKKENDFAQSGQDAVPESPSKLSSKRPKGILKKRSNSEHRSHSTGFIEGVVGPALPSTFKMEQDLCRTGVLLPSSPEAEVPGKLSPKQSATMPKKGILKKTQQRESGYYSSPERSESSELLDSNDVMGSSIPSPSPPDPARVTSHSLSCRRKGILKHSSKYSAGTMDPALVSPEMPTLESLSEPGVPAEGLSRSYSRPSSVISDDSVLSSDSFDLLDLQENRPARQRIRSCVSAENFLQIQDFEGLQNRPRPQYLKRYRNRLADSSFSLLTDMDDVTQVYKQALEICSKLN
pIC50: −log10 of the molar value.
Measurement Name: pIC50

Some solved entries appear below for comparison.
[[record]]
molecule = "COc1cc(N2CCN(C)CC2)ccc1Nc1ncc2c(n1)N(C1CCCC1)C(=O)NC2"
obs_value = "7.00 to 8.00"

[[record]]
molecule = "COc1cc(N2CCN(C)CC2)ccc1Nc1ncc2c(n1)N(C1CCOCC1)C(=O)NC2"
obs_value = "6.00 to 7.00"

[[record]]
molecule = "COc1cc(N2CCN(C)CC2)ccc1Nc1ncc2ccc(=O)n(C3CCCC3)c2n1"
obs_value = "7.00 to 8.00"

[[record]]
molecule = "COc1cc(N2CCN(C)CC2)ccc1Nc1ncc2ccc(=O)n(C3CC3)c2n1"
obs_value = "7.00 to 8.00"


Prompt line: Request the reported pIC50 associated with CCC(=O)Nc1cccc(Oc2nc(Nc3ccc(N4CCN(C)CC4)cc3OC)ncc2I)c1 [HTH-02-006, reference compound]
Response line: 7.00 to 8.00

Prompt line: Reported pIC50, molecule CN1CCN(c2ccc(Nc3ncc4cnc(=O)n(C5CCCC5)c4n3)c(OC(F)(F)F)c2)CC1 : ____
Response line: < 6.00

Prompt line: Recorded pIC50 for COc1cc(N2CCN(C)CC2)ccc1Nc1ncc2cnc(=O)n(C3CCOCC3)c2n1 , please?
Response line: < 6.00

Prompt line: # input molecule: COc1cc(N2CCN(C)CC2)ccc1Nc1ncc2cc(C#N)c(=O)n(C3CCCC3)c2n1 ; wanted: its pIC50
Response line: 7.00 to 8.00

Prompt line: Would you mind telling me what pIC50 value was observed for CN1CCN(c2ccc(Nc3ncc4cnc(=O)n(C5CCCC5)c4n3)c(Cl)c2)CC1 ?
Response line: 6.00 to 7.00

Prompt line: Fill blank: measured pIC50 of the molecule COc1cc(N2CCN(C)CC2)ccc1Nc1ncc2c(n1)N(C1CCCC1)C(=O)CC2 is ____.
Response line: 6.00 to 7.00

Prompt line: Fill blank: measured pIC50 of the molecule COc1cc(N2CCN(C)CC2)ccc1Nc1ncc2c(n1)N(C1CC1)C(=O)CC2 is ____.
Response line: 6.00 to 7.00
